Values compiled from the supplement of paper PMC10567573.

B1: LPCAT4 (parent)
chain: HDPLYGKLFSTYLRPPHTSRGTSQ

variants of: B1; test: protein stability index of a GFP-peptide fusion (GPS, HEK-293T) (PSI 1-6); higher = more stable; settings: c terminus: a fixed tail appended;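 further: lentivirally expressed fusions sorted by FACS into six bins by GFP to DsRed ratio, PSI derived from sequencing read proportions per bin multiplied by bin number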
Known protein stability index of a selection of variants
Reported metric: protein stability index

>>> df
    variant_identifier          reported_metric  quantitative_readout
 0                 K7L  protein stability index                  2.46
 1                 D2M  protein stability index                  1.91
 2                H17D  protein stability index                  2.82
 3                L13Q  protein stability index                  4.06
 4                 F9Q  protein stability index                  4.37
 5                 F9K  protein stability index                  4.05
 6                Y12V  protein stability index                  2.92
 7                 F9W  protein stability index                  2.43
 8                T18H  protein stability index                  2.61
 9                S23F  protein stability index                  2.09
10                P15L  protein stability index                  2.27
11                L13C  protein stability index                  2.77
12                T22A  protein stability index                  2.66
13                P15R  protein stability index                  2.85
14                 K7F  protein stability index                  1.94
15                G21V  protein stability index                  2.82
16                H17F  protein stability index                   2.9
17                S19C  protein stability index                  2.91
18                Q24F  protein stability index                  2.28
19                 P3S  protein stability index                   2.3
20                 G6A  protein stability index                  1.77
21                S23C  protein stability index                  2.61
22                H17K  protein stability index                  2.38
23                 L4H  protein stability index                  3.22
24                R14N  protein stability index                  3.04
25                S19N  protein stability index                  3.12
26                S10M  protein stability index                  2.72
27                 P3V  protein stability index                  2.76
28                R14M  protein stability index                  2.79
29                 H1P  protein stability index                   3.1
30                 L8G  protein stability index                  4.66
31                 K7S  protein stability index                  2.58
32                T11K  protein stability index                  3.45
33                Y12M  protein stability index                  2.76
34                Y12R  protein stability index                  3.76
35                 H1T  protein stability index                  3.96
36                Q24H  protein stability index                   2.3
37                 Y5P  protein stability index                  3.65
38                T22F  protein stability index                  2.42
39                R20L  protein stability index                  2.19
40                 K7W  protein stability index                  1.96
41                S10L  protein stability index                  2.96
42                 F9N  protein stability index                  4.76
43                S19D  protein stability index                   3.1
44                R20V  protein stability index                  2.29
45                L13E  protein stability index                  3.99
46                Q24T  protein stability index                  2.53
47                S10H  protein stability index                   3.8
48                S10P  protein stability index                  4.13
49                 H1V  protein stability index                     4
50                Y12A  protein stability index                  3.74
51                S23K  protein stability index                  2.51
52                P16K  protein stability index                  3.01
53                 Y5F  protein stability index                  2.47
54                 F9M  protein stability index                  4.35
55                 L4C  protein stability index                  3.28
56                P15N  protein stability index                  2.36
57                Q24S  protein stability index                  2.72
58                R14C  protein stability index                  2.78
59                S19T  protein stability index                  2.61
60                S19E  protein stability index                  2.44
61                 G6V  protein stability index                  2.56
62                T22C  protein stability index                  2.43
63                L13K  protein stability index                  3.44
64                T18D  protein stability index                  2.83
65                 L8Q  protein stability index                  4.58
66                 K7R  protein stability index                  2.46
67                P16R  protein stability index                  2.77
68                T18K  protein stability index                  2.65
69                 G6D  protein stability index                  3.61
70                P16Y  protein stability index                  2.22
71                P15I  protein stability index                  2.32
72                G21T  protein stability index                  2.49
73                P16I  protein stability index                  2.41
74                R14V  protein stability index                  3.17
75                 G6T  protein stability index                  1.86
76                 Y5N  protein stability index                  2.85
77                G21I  protein stability index                  2.41
78                H17I  protein stability index                  2.43
